- Tested on: HaCaT keratinocytes
- Experimental Protocol: Fluorescein diacetate cellular viability assay
- Format: cell-based
- Condition Set: Homo sapiens, light or radiation study, 1 h treatment, irradiated at 405 nm for 5 min (72 mW/cm^2), read after 24 h, read-out: IC50 cell viability, light activation
Attribute Measured: pIC50
Give bare numbers, as −log10 of the molar value.

// query Under HaCaT keratinocytes: pIC50 value of COC(=O)/C=C/c1ccc(C#Cc2cnc(N3CCN(C(=O)CCCCCCC(=O)NOC(C)=O)CC3)s2)cn1 [compound 92] ?
// result 6.16
